# assay-system: Pdr3 (UniProt P33200)
# Sequence: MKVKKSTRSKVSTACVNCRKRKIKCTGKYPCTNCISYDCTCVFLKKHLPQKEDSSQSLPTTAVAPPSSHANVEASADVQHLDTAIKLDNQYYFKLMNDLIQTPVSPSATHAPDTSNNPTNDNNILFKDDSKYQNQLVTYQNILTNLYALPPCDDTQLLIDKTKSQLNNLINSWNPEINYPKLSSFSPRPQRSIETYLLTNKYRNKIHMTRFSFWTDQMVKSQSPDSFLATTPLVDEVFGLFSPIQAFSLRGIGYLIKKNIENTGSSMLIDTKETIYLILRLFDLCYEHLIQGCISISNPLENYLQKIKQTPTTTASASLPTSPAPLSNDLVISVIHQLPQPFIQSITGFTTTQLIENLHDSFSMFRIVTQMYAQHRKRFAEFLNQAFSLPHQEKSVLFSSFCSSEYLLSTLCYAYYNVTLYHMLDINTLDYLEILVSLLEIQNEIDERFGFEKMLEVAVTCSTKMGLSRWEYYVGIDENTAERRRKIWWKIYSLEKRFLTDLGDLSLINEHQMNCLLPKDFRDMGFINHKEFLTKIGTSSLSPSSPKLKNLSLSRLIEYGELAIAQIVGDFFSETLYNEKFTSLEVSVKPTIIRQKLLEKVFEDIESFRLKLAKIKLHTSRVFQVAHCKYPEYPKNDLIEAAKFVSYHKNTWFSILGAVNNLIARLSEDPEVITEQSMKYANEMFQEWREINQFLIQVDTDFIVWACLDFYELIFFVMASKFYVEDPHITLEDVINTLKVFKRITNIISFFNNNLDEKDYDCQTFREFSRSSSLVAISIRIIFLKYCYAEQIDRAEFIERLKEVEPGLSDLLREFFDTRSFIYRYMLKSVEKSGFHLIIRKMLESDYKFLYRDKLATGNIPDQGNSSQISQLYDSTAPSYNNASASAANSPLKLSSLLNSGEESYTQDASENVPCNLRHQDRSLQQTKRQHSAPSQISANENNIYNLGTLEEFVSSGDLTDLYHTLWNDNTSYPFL
# procedure-details: PBM E-score (8-mer binding enrichment) (E-score (-0.5 to 0.5)); higher = stronger / more preferred TF binding
# condition-parameters: protein concentration: 200 nM; construct: GST-full length
In all, about 33,000 sequences were measured (“E-score (-0.5 to 0.5)”: median about -0.035, highest 2% from about 0.35 on). The entries come from a sample that favours the highest values as a whole.
Classes by PBM E-score: class A (below 0.01), class B (0.01 to below 0.3), class C (0.3 or more)

sequence-entry: CCACATTC
label-value: class B

sequence-entry: GCCGGCTA
label-value: class B

sequence-entry: AAATATAT
label-value: class B

sequence-entry: CCCGGCGC
label-value: class B

sequence-entry: TCCGGCGA
label-value: class C

sequence-entry: GTCGGCGA
label-value: class A

sequence-entry: CAGGGATA
label-value: class A

sequence-entry: GAAAACTA
label-value: class B

sequence-entry: CGACCATA
label-value: class B

sequence-entry: GGACCGCA
label-value: class B

sequence-entry: ACCGGCGA
label-value: class B

sequence-entry: AGACCGGA
label-value: class B

sequence-entry: AGCCGGAC
label-value: class C

sequence-entry: TAATGATA
label-value: class B

sequence-entry: ATAAGCAG
label-value: class A

sequence-entry: AGCTCTGC
label-value: class A

sequence-entry: CGCACGGA
label-value: class C

sequence-entry: GGACCGGA
label-value: class C

sequence-entry: AAGTTCCT
label-value: class B

sequence-entry: AGTGTTCG
label-value: class A

sequence-entry: CCCACGGG
label-value: class C

sequence-entry: CCCACGGA
label-value: class C

sequence-entry: TGCCGAAA
label-value: class B

sequence-entry: GCCGGCGA
label-value: class C

sequence-entry: AGTTCTGG
label-value: class A

sequence-entry: ACTTGGTG
label-value: class A

sequence-entry: ATGCCAGC
label-value: class A

sequence-entry: ACTTCGGA
label-value: class C

sequence-entry: CATTAGAG
label-value: class A

sequence-entry: TACACGTA
label-value: class A

sequence-entry: TGCCGGAA
label-value: class C

sequence-entry: ACGTCAGG
label-value: class A

sequence-entry: CGACCGGC
label-value: class B

src = the supplement of paper PMC3334620
